assay: chemical genetic growth profiling, strain panel (AID 1159580);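 also: tested at 20 µM; growth read once vehicle control cultures reached saturation at 30 °C; 1 = growth at the plate median or of vehicle wells; lower values mean less growth of the strain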; conditions: S. cerevisiae deletion strains, growth OD, locus YCL011C, strain gbp2, active compounds read low
In all, about 5,500 compounds went through this assay and about 2,000 (36%) were called active. Not shown: some 18% with an inconclusive outcome. The list shows a part of the results.
test.readout: normalized growth
Numbers only.

// solved cases for normalized growth follow
CN1CCCC(n2nc(Cc3ccc(Cl)cc3)c3ccccc3c2=O)CC1 (stereo unspecified) | 0.989
Cc1cccc(Nc2cc(Cl)nc(SCC(=O)O)n2)c1C | 0.987

For the 7 molecules below, give their normalized growth values.
1. CCC(C(=O)O)c1ccccc1 (stereo unspecified)
2. CCOC(=O)c1ncn2c1CN(C)C(=O)c1cc(F)ccc1-2
3. COc1ccc2c(c1)OC[C@@H](Cc1ccc(OC)c(OC)c1)[C@H]2O
4. CCC1(c2ccc(N)cc2)CCC(=O)NC1=O (stereo unspecified)
5. COc1ccc2c(c1)OC[C@@H](Cc1ccc(OC)c(OC)c1)[C@@H]2O
6. c1ccc(CC2=NCCN2)cc1
7. CCC1(c2ccccc2)C(=O)NCNC1=O

[0.979, 1.01, 1.01, 0.984, 1, 1.02, 0.978]

For the 6 molecules below, give their normalized growth values.
1. CCCCOc1ccc(C(=O)CCN2CCCCC2)cc1
2. NCC1CCCCC1CC(=O)O (stereo unspecified)
3. COc1cc(OC)c2c(c1)O[C@H](c1ccc(OC)c(OC)c1)[C@@H](O)C2
4. O=C(/C=C/c1ccccc1)O[C@H]1C[C@@H](O)[C@]2(O)C=CO[C@@H](O[C@@H]3O[C@H](CO)[C@@H](O)[C@H](O)[C@H]3O)[C@H]12
5. NC/C=C/C(=O)O
6. C/C=C(/C(=C/C)c1ccc(O)cc1)c1ccc(O)cc1

0.966
1.02
0.986
1.02
0.983
0.968

Which normalized growth is listed for COC(=O)C1=COC(OC2OC(CO)C(O)C(O)C2O)C2C(C)CC(=O)C12O (stereo unspecified) ? 0.982

###

assay: chemical genetic growth profiling, strain panel (AID 1159580);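 also: tested at 20 µM; growth read once vehicle control cultures reached saturation at 30 °C; 1 = growth at the plate median or of vehicle wells; lower values mean less growth of the strain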; conditions: S. cerevisiae deletion strains, growth OD, locus YML032C, strain rad52, active compounds read low
Out of some 5,500 compounds screened, about 2,000 (36%) were called active. Inconclusive results (about 18%) are left out. This is one part of the list.
test.readout: normalized growth
Numbers only.

CC(=O)[C@H]1CCC2C3C[C@H](C)C4=CC(=O)CC[C@]4(C)C3[C@@H](O)C[C@@]21C (some centres not stated) | 1.01
COC1C(O)C(O)C(O)[C@@H](O)C1O (some centres not stated) | 1.04
COc1ccc(-c2coc3c(OC)c(OC)cc(OC)c3c2=O)cc1 | 0.999
COc1cc(O)c(C(=O)c2ccccc2)cc1O | 0.967
NC(=O)c1ncn([C@@H]2O[C@H](CO)[C@@H](O)[C@H]2O)c1O | 1.03

For the 4 molecules below, give their normalized growth values.
1. CC(=O)O[C@]1(C(C)=O)CCC2C3C=C(C)C4=CC(=O)CCC4(C)C3CCC21C (some centres not stated)
2. CC[C@@H](CO)NCCN[C@@H](CC)CO
3. CN1C2CC3C[C@H]1C(O3)C2O (some centres not stated)
4. CCC1(c2ccccc2)C(=O)NCNC1=O

1. 0.96
2. 1.01
3. 1.02
4. 0.992
